Numbers sourced from patent US11399542B2.

Could you please report measured melting point for the items listed next?

CCSc1cc2c(cc1-c1nc3cc(C(F)(F)F)cnc3n1C)n(C#N)c(=O)n2C
255 to 257 °C

List melting point for every entry below, keeping the order given.
1. CCSc1cc2c(cc1-c1nc3cc(C(F)(F)F)ccc3o1)n(C)c(=O)n2C
2. CCSc1cc2c(cc1-c1nc3cc(SC(F)(F)F)ccc3o1)n(C)c(=O)n2C
3. CCSc1cc2c(cc1-c1nc3cc(C(F)(F)F)cnc3n1C)n(C)c(=O)n2CC

Output line:
1. 205 to 207 °C
2. 206 to 208 °C
3. 186 to 188 °C
